- TARGET UNDER TEST: human somatostatin receptor subtype 5 (Homo sapiens, UniProt P35346)
- Sequence (P35346 whole entry): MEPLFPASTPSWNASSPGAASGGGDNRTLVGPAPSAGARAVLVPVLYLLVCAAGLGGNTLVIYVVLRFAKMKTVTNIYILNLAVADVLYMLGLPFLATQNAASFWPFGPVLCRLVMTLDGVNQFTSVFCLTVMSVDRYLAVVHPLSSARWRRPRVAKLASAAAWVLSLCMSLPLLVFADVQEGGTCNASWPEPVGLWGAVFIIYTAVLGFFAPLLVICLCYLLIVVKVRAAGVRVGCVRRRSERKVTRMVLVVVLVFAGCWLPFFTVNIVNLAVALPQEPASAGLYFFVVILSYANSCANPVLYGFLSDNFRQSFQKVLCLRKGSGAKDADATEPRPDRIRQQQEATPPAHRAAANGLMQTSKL
- MEASUREMENT DESCRIPTION: cAMP assay for SST5R (inhibition of cAMP via human SST5 receptor)
MEASUREMENT LABEL: EC50

Below are worked cases with known answers.
COMPOUND | TEST VALUE
Cn1c(-c2cncc(-c3cc(F)cc(C#N)c3)c2N2CC[C@H](N)C2)nc2c(Cl)cccc21 | < 0.01 µM
Cn1c(-c2cncc(-c3cccc(C#N)c3)c2N2CC[C@H](N)C2)nc2c(F)cccc21 | < 0.01 µM
CCc1cccc2[nH]c(-c3cncc(-c4cccc(C#N)c4)c3N3CC[C@H](N)C3)nc12 | < 0.01 µM
CS(=O)(=O)c1cccc(-c2cncc(-c3nc4cccc(F)c4[nH]3)c2N2CC[C@H](N)C2)c1 | 0.01 to 0.1 µM

Query: Any idea what EC50 was measured for `Cc1cc(F)cc(-c2cncc(-c3nc4cccc(C)c4[nH]3)c2N2CC[C@H](N)C2)c1` ?
Response: < 0.01 µM

Query: Any idea what EC50 was measured for `NCC1CN(c2c(-c3nc4cc(F)cc(F)c4[nH]3)cncc2-c2cccc3ccccc23)C1` ?
Response: 0.01 to 0.1 µM

Query: Any idea what EC50 was measured for `Cc1cc(F)cc(-c2cncc(-c3nc4cnccc4[nH]3)c2N2CC(CN)C2)c1` ?
Response: 0.1 to 1 µM

Query: Any idea what EC50 was measured for `Cc1cc(-c2cncc(-c3nc4c(F)cccc4[nH]3)c2N2CC[C@H](N)C2)ccn1` ?
Response: 0.01 to 0.1 µM

Query: Any idea what EC50 was measured for CCOc1ccc(-c2cncc(-c3nc4c(F)cc(F)cc4[nH]3)c2N2CC(C(C)N)C2)cc1F (stereo not shown) ?
Response: 0.01 to 0.1 µM

Query: Any idea what EC50 was measured for `N#Cc1c(F)cccc1-c1cncc(-c2nc3c(F)ccc(F)c3[nH]2)c1N1CC[C@H](N)C1` ?
Response: 0.01 to 0.1 µM

Query: Any idea what EC50 was measured for `N#Cc1cc(-c2cncc(-c3nc4cccc(C#N)c4[nH]3)c2N2CC[C@H](N)C2)ccc1F` ?
Response: < 0.01 µM

Query: Any idea what EC50 was measured for `N#Cc1ccc(-c2cncc(-c3nc4cccc(F)c4[nH]3)c2N2CC[C@H](N)C2)s1` ?
Response: < 0.01 µM

Query: Any idea what EC50 was measured for Cc1cccc2nc(-c3cncc(-c4cc(F)cc(C(N)=O)c4)c3N3CCC(C)(N)C3)[nH]c12 (stereo not shown) ?
Response: < 0.01 µM

Query: Any idea what EC50 was measured for `Cc1cc(F)cc(-c2cncc(-c3nc4c(F)cc(F)cc4[nH]3)c2N2CC(CN)C2)c1` ?
Response: < 0.01 µM

Query: Any idea what EC50 was measured for `CCn1c(-c2cncc(-c3cc(F)cc(C#N)c3)c2N2CC[C@H](N)C2)nc2c(F)cccc21` ?
Response: < 0.01 µM

Query: Any idea what EC50 was measured for CC(N)C1(C)CN(c2c(-c3cccc(C#N)c3)cncc2-c2nc3cc(F)cc(F)c3[nH]2)C1 (stereo not shown) ?
Response: < 0.01 µM

Query: Any idea what EC50 was measured for `N#Cc1cc(-c2cncc(-c3nc4ccc(F)c(F)c4[nH]3)c2N2CC[C@H](N)C2)ccc1F` ?
Response: < 0.01 µM

Query: Any idea what EC50 was measured for `Cc1cc(-c2cncc(-c3nc4c(F)cccc4[nH]3)c2N2CC[C@](C)(N)C2)ccn1` ?
Response: < 0.01 µM

Query: Any idea what EC50 was measured for `Cc1cc(F)cc(-c2cncc(-c3nc4c(F)cc(F)cc4[nH]3)c2N2CC(C)(CN)C2)c1` ?
Response: < 0.01 µM

Query: Any idea what EC50 was measured for `N#Cc1cc(F)cc(-c2cncc(-c3nc4cc(F)cc(F)c4[nH]3)c2N2CC(CN)C2)c1` ?
Response: < 0.01 µM

Query: Any idea what EC50 was measured for `Cn1c(-c2cncc(-c3ccc(F)c(C#N)c3)c2N2CC[C@H](N)C2)nc2c(Cl)cccc21` ?
Response: 0.01 to 0.1 µM

Query: Any idea what EC50 was measured for `Cc1cccc2nc(-c3cncc(-c4cc(F)cc(Cl)c4)c3N3CC[C@H](N)C3)[nH]c12` ?
Response: < 0.01 µM

* * *

- TARGET UNDER TEST: human somatostatin receptor subtype 2 (Homo sapiens)
- Sequence (P30874 whole entry): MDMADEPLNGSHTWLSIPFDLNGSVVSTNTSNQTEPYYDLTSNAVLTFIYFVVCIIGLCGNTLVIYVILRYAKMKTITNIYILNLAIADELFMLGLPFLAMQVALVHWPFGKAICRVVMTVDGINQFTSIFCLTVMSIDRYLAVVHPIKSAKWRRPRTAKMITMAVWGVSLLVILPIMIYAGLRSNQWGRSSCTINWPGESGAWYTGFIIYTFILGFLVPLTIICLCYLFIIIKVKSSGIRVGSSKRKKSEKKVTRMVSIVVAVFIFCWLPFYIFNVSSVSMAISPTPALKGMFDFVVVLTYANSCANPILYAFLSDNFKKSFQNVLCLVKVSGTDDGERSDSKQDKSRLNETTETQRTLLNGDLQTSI
- MEASUREMENT DESCRIPTION: cAMP assay for SST2R (inhibition of cAMP via human SST2 receptor)
- CONDITION: Table B, read-out: SST2 potency
MEASUREMENT LABEL: EC50

COMPOUND | EC50
Cc1cccc2nc(-c3cncc(-c4cc(F)cc(C#N)c4)c3N3CC[C@@](N)(CO)C3)[nH]c12 | 10 to 100 nM
Cc1cc(F)cc(-c2cncc(-c3nc4c(F)cc(F)cc4[nH]3)c2N2CC(C(C)N)C2)c1 (centres unmarked) | 100 to 1000 nM
N#Cc1cc(F)cc(-c2cncc(-c3nc4ccccc4[nH]3)c2N2CC[C@H](N)C2)c1 | 100 to 1000 nM

Query: Record `Cc1cccc2nc(-c3cncc(-c4cc(F)cc(C(N)=O)c4)c3N3CC[C@H](N)C3)[nH]c12` : what is its EC50 with human somatostatin receptor subtype 2 (Homo sapiens)?
Response: 100 to 1000 nM

Query: Record `Cc1cc(F)cc2nc(-c3cncc(-c4cc(F)cc(C#N)c4)c3N3CC[C@H](N)C3)[nH]c12` : what is its EC50 with human somatostatin receptor subtype 2 (Homo sapiens)?
Response: 100 to 1000 nM

Query: Record `Cc1cccc2nc(-c3cncc(-c4cc(F)cc(F)c4)c3N3CC[C@H](N)C3)[nH]c12` : what is its EC50 with human somatostatin receptor subtype 2 (Homo sapiens)?
Response: 10 to 100 nM

Query: Record `Cc1cc(F)cc(-c2cncc(-c3nc4cc(Cl)ccc4[nH]3)c2N2CC(CN)C2)c1` : what is its EC50 with human somatostatin receptor subtype 2 (Homo sapiens)?
Response: > 1000 nM

Query: Record `C[C@]1(N)CCN(c2c(-c3cccc(C#N)c3)cncc2-c2nc3cccc(C#N)c3[nH]2)C1` : what is its EC50 with human somatostatin receptor subtype 2 (Homo sapiens)?
Response: 100 to 1000 nM

Query: Record `N#Cc1cc(F)cc(-c2cncc(-c3nc4c(F)cccc4[nH]3)c2N2CC[C@H](N)C2)c1` : what is its EC50 with human somatostatin receptor subtype 2 (Homo sapiens)?
Response: > 1000 nM

Query: Record CC1(N)CCN(c2c(-c3cc(F)cc(OCC#N)c3)cncc2-c2nc3cccc(F)c3[nH]2)C1 (centres unmarked) : what is its EC50 with human somatostatin receptor subtype 2 (Homo sapiens)?
Response: 100 to 1000 nM

Query: Record `Cc1cc(F)cc(-c2cncc(-c3nc4cccc(Cl)c4[nH]3)c2N2CC[C@H](N)C2)c1` : what is its EC50 with human somatostatin receptor subtype 2 (Homo sapiens)?
Response: 100 to 1000 nM

Query: Record Cc1cccc2[nH]c(-c3cncc(-c4cc(F)c(F)c(C(N)=O)c4)c3N3CCC(C)(N)C3)nc12 (centres unmarked) : what is its EC50 with human somatostatin receptor subtype 2 (Homo sapiens)?
Response: 100 to 1000 nM

Query: Record CC1(N)CCN(c2c(-c3cc(F)cc(C(N)=O)c3)cncc2-c2nc3cccc(F)c3[nH]2)C1 (centres unmarked) : what is its EC50 with human somatostatin receptor subtype 2 (Homo sapiens)?
Response: 100 to 1000 nM

Query: Record CC1(N)CCN(c2c(-c3ccc4c(c3)OCC4)cncc2-c2nc3cccc(F)c3[nH]2)C1 (centres unmarked) : what is its EC50 with human somatostatin receptor subtype 2 (Homo sapiens)?
Response: 100 to 1000 nM

Query: Record CC1(N)CCN(c2c(-c3cccc(S(C)(=O)=O)c3)cncc2-c2nc3cccc(F)c3[nH]2)C1 (centres unmarked) : what is its EC50 with human somatostatin receptor subtype 2 (Homo sapiens)?
Response: > 1000 nM

Query: Record CC(N)C1(C)CN(c2c(-c3cccc(C#N)c3)cncc2-c2nc3cc(F)cc(F)c3[nH]2)C1 (centres unmarked) : what is its EC50 with human somatostatin receptor subtype 2 (Homo sapiens)?
Response: > 1000 nM

Query: Record CC1(N)CCN(c2c(-c3ccnc(C#N)c3)cncc2-c2nc3cccc(C(F)(F)F)c3[nH]2)C1 (centres unmarked) : what is its EC50 with human somatostatin receptor subtype 2 (Homo sapiens)?
Response: 100 to 1000 nM

* * *

Listed below: pEC50 values for each entry.
- TARGET UNDER TEST: UniProtKB P35346
- MEASUREMENT DESCRIPTION: cAMP assay for SST5R (inhibition of cAMP via human SST5 receptor)
pEC50: −log10 of the molar value.

MOLECULE | MEASUREMENT LABEL | TEST VALUE
Cc1cc(F)cc(-c2cncc(-c3nc4c(F)cccc4n3C)c2N2CC(CN)C2)c1 [Compound 1-24] | pEC50 | 7.00 to 8.00
Cc1cccc2nc(-c3cncc(-c4cccc(C#N)c4)c3N3CC[C@H](N)C3)[nH]c12 [Compound 2-80] | pEC50 | > 8.00
Cc1ccc(F)c2nc(-c3cncc(-c4cc(F)cc(C(N)=O)c4)c3N3CC[C@H](N)C3)[nH]c12 [Compound 2-96] | pEC50 | > 8.00
CC1(N)CCN(c2c(-c3cccc(OC(F)(F)F)c3)cncc2-c2nc3cccc(F)c3[nH]2)C1 (stereo not shown) [Compound 2-10] | pEC50 | > 8.00
COc1cc(Cl)cc(-c2cncc(-c3nc4c(F)cc(F)cc4[nH]3)c2N2CC(CN)C2)c1 [Compound 1-59] | pEC50 | > 8.00
Cc1ccnc2[nH]c(-c3cncc(-c4cc(F)c(F)c(C#N)c4)c3N3CC[C@](C)(N)C3)nc12 [Compound 2-165] | pEC50 | > 8.00
Cc1cccc2nc(-c3cncc(-c4cc(F)cc(C(F)(F)F)c4)c3N3CC[C@H](N)C3)[nH]c12 [Compound 2-185] | pEC50 | > 8.00
Cc1cccc2nc(-c3cncc(-c4cc(F)c(F)c(C#N)c4)c3N3CC[C@H](N)C3)[nH]c12 [Compound 2-139] | pEC50 | > 8.00
CS(=O)(=O)c1cc(F)cc(-c2cncc(-c3nc4cccc(F)c4[nH]3)c2N2CC[C@H](N)C2)c1 [Compound 2-92] | pEC50 | 7.00 to 8.00
N#Cc1cc(F)cc(-c2cncc(-c3nc4ccc(Cl)cc4[nH]3)c2N2CC[C@H](N)C2)c1 [Compound 2-198] | pEC50 | > 8.00

Query: Any idea what pEC50 was measured for Cc1cccc2nc(-c3cncc(-c4ccnc(C#N)c4)c3N3CC[C@](C)(N)C3)[nH]c12 [Compound 2-145] ?
Response: > 8.00

Query: Any idea what pEC50 was measured for Cc1ccnc2[nH]c(-c3cncc(-c4ccc(F)c(C#N)c4)c3N3CC[C@](C)(N)C3)nc12 [Compound 2-154] ?
Response: > 8.00

Query: Any idea what pEC50 was measured for COCCn1c(-c2cncc(-c3cc(F)cc(C#N)c3)c2N2CC[C@H](N)C2)nc2ccccc21 [Compound 2-112] ?
Response: 6.00 to 7.00

Query: Any idea what pEC50 was measured for CC(N)C1CN(c2c(-c3cc(F)cc(C(F)(F)F)c3)cncc2-c2nc3c(F)cc(F)cc3[nH]2)C1 (stereo not shown) [Compound 1-63] ?
Response: > 8.00

Query: Any idea what pEC50 was measured for CCn1c(-c2cncc(-c3cccc(C#N)c3)c2N2CC[C@H](N)C2)nc2c(F)cccc21 [Compound 2-143] ?
Response: > 8.00

Query: Any idea what pEC50 was measured for CC1(N)CCN(c2c(-c3cccc(C(N)=O)c3)cncc2-c2nc3c(F)cccc3[nH]2)C1 (stereo not shown) [Compound 2-18] ?
Response: > 8.00

Query: Any idea what pEC50 was measured for Cc1ccnc2nc(-c3cncc(-c4cc(F)cc(C#N)c4)c3N3CCC(C)(N)C3)[nH]c12 (stereo not shown) [Compound 2-108] ?
Response: > 8.00

Query: Any idea what pEC50 was measured for Cc1cccc(-c2cncc(-c3nc4c(F)cc(F)cc4[nH]3)c2N2CC(CN)C2)c1 [Compound 1-29] ?
Response: > 8.00
